The reported measurements were obtained from patent EP4640223A1.

Assay: Drug-drug compatibility test under accelerated stability conditions
Type: physicochemical
Conditions: Acceleration 1 week; 40 ± 2°C/75 ± 5% relative humidity; color, clumping, etc.
endpoint name: property

>>> recorded_result("CCCCC(=O)N(Cc1ccc(-c2ccccc2-c2nnn[nH]2)cc1)[C@H](C(=O)O)C(C)C")
"suitable"
>>> recorded_result("OC[C@H]1O[C@@H](c2ccc(Cl)c(Cc3ccc(O[C@H]4CCOC4)cc3)c2)[C@H](O)[C@@H](O)[C@@H]1O")
"suitable"
>>> recorded_result("CCCc1nc2c(C)cc(-c3nc4ccccc4n3C)cc2n1Cc1ccc(-c2ccccc2C(=O)O)cc1")
"suitable"

====

Assay: Drug-drug compatibility test under accelerated stability conditions
Format: physicochemical
Conditions: Acceleration 2 week; 40 ± 2°C/75 ± 5% relative humidity; color, clumping, etc.
endpoint name: property

>>> recorded_result("CCCc1nc2c(C)cc(-c3nc4ccccc4n3C)cc2n1Cc1ccc(-c2ccccc2C(=O)O)cc1")
"suitable"
>>> recorded_result("OC[C@H]1O[C@@H](c2ccc(Cl)c(Cc3ccc(O[C@H]4CCOC4)cc3)c2)[C@H](O)[C@@H](O)[C@@H]1O")
"suitable"
>>> recorded_result("CCCCC(=O)N(Cc1ccc(-c2ccccc2-c2nnn[nH]2)cc1)[C@H](C(=O)O)C(C)C")
"suitable"
